IC50 overview
biological target: Angiotensin-converting enzyme (Homo sapiens, UniProt P12821); experiment: Inhibitory concentration against Angiotensin I converting enzyme
Sequence (P12821 whole entry): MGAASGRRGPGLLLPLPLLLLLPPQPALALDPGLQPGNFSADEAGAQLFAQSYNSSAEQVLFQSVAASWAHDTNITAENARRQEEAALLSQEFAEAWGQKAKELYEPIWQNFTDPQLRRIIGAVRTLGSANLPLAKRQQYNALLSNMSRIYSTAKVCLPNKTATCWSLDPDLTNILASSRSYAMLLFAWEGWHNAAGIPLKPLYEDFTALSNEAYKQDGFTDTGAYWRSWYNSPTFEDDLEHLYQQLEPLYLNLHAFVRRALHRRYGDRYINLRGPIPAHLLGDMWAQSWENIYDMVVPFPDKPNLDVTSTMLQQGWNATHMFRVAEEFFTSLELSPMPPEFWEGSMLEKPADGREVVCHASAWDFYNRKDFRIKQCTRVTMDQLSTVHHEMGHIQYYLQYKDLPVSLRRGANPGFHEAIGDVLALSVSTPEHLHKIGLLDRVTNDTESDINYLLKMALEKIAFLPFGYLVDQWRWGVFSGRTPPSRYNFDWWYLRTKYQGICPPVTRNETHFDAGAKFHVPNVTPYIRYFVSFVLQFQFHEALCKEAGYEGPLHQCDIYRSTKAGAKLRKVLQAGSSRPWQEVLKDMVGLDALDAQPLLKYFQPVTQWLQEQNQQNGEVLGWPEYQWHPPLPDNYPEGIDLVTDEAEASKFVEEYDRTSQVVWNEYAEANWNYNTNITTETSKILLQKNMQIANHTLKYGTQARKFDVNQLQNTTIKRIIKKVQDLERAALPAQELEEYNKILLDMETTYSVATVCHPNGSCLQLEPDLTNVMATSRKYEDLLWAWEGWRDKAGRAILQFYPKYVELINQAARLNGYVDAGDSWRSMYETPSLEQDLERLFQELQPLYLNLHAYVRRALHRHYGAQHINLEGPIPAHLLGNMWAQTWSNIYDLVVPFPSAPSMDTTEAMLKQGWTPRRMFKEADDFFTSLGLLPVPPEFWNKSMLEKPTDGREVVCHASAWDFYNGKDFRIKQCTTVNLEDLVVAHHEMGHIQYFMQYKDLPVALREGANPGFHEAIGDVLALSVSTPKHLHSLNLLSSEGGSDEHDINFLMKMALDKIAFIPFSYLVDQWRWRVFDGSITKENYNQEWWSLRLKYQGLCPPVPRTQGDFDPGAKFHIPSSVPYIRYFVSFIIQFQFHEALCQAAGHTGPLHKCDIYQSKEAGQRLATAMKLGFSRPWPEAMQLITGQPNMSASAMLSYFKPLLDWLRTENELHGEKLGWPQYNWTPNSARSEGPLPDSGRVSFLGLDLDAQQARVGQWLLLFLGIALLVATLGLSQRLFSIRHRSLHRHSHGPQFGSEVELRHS
The reply should consist of the numeric value with the unit placed after it.

>>> df
                                   compound  result_value
0  NC1CCCCN(CC(=O)O)C1=O (stereo not drawn)        480 µM
1  NC1CCCCCN(CC(=O)O)C1=O (stereo not drawn)        440 µM

Exam item: Entry NC1CCCN(CC(=O)O)C1=O (stereo not drawn) : reported IC50 = ?
Marked response: 1700 µM

---

pIC50 overview
target: Angiotensin-converting enzyme (Homo sapiens); experiment: Inhibitory concentration (isomer A) against Angiotensin I converting enzyme
Please report pIC50 as the negative decimal logarithm of the molar concentration, giving only the number.

                                   molecule  readout_label  result_value
0  O=C(O)CN1CCCCCC(NC(CCc2ccccc2)C(=O)O)C1=O (stereo not given)          pIC50          5.77
1  O=C(O)CN1CCCCCCC(NC(CCc2ccccc2)C(=O)O)C1=O (stereo not given)          pIC50          5.89
2  O=C(O)CN1CCCC(NC(CCc2ccccc2)C(=O)O)C1=O (stereo not given)          pIC50          6.37
3  O=C(O)CN1CCC(NC(CCc2ccccc2)C(=O)O)C1=O (stereo not given)          pIC50          4.92

Read the next record carefully.
Exam item: Entry O=C(O)CN1CCCCC(NC(CCc2ccccc2)C(=O)O)C1=O (stereo not given) : reported pIC50 = ?
Marked response: 6.15

---

molecular target: Angiotensin-converting enzyme (Homo sapiens, UniProt P12821); assay: Inhibitory concentration (isomer B) against Angiotensin I converting enzyme
Hi! Just check whether IC50 is below 20 nM. Below gives Yes, equal or above gives No.

Exam item: Lab log: compare recorded IC50 with 20 nM; is it strictly lower for O=C(O)CN1CCCCCCC(NC(CCc2ccccc2)C(=O)O)C1=O (configuration not stated) ?
Marked response: Yes

Exam item: Lab log: compare recorded IC50 with 20 nM; is it strictly lower for "O=C(O)CN1CCCCC[C@@H](N[C@H](CCc2ccccc2)C(=O)O)C1=O" ?
Marked response: No

Exam item: Lab log: compare recorded IC50 with 20 nM; is it strictly lower for O=C(O)CN1CCCC(NC(CCc2ccccc2)C(=O)O)C1=O (configuration not stated) ?
Marked response: No

---

biological target: Angiotensin-converting enzyme (Homo sapiens, UniProt P12821); assay: Inhibitory concentration (isomer B) against Angiotensin I converting enzyme
readout label: IC50 (nM)
Answer in nM, number only, no unit symbol.

Example results:
In [3]: df
Out[3]:
                                   compound                        measurement_target  readout_label  result_value
0  O=C(O)CN1CCCCC[C@H](N[C@@H](CCc2ccccc2)C(=O)O)C1=O  Angiotensin-converting enzyme (Homo sapiens, UniProt P12821)           IC50             2
1  O=C(O)CN1CCCCC(NC(CCc2ccccc2)C(=O)O)C1=O (centres undefined)  Angiotensin-converting enzyme (Homo sapiens, UniProt P12821)           IC50            19
2  O=C(O)CN1CCCCCC(NC(CCc2ccccc2)C(=O)O)C1=O (centres undefined)  Angiotensin-converting enzyme (Homo sapiens, UniProt P12821)           IC50           4.8

Read the next record carefully.
Exam item: Please state recorded IC50 (tested on Angiotensin-converting enzyme (Homo sapiens, UniProt P12821)) of O=C(O)CN1CCC(NC(CCc2ccccc2)C(=O)O)C1=O (centres undefined)
Marked response: 19000

Just for reference, ChEMBL document CHEMBL1123398 is where these values come from.
